Test: Drug-drug interaction study: bardoxolone methyl alone and with itraconazole in healthy volunteers
Settings: human, plasma, po, 10 mg, AUC0-∞, Mean, Period 1: single oral 10 mg bardoxolone methyl alone, fasted, plasma, n = 16
Measurement name: AUC(0-inf) (ng·h/mL)
Report the figure in ng·h/mL without appending any unit label.

Please report the recorded AUC(0-inf) for COC(=O)[C@]12CCC(C)(C)C[C@H]1[C@H]1C(=O)C=C3[C@@]4(C)C=C(C#N)C(=O)C(C)(C)[C@@H]4CC[C@@]3(C)[C@]1(C)CC2 .
31

###

Experiment: Drug-drug interaction study: bardoxolone methyl alone and with itraconazole in healthy volunteers
Settings: human, plasma, oral, tmax, Median, Period 2: single 10 mg bardoxolone methyl with daily 200 mg itraconazole, plasma, n = 15
Measurement name: Tmax (h)
Report the figure in h without appending any unit label.

Please report the recorded Tmax for COC(=O)[C@]12CCC(C)(C)C[C@H]1[C@H]1C(=O)C=C3[C@@]4(C)C=C(C#N)C(=O)C(C)(C)[C@@H]4CC[C@@]3(C)[C@]1(C)CC2 .
3
